target: Butyrylcholinesterase (from equine serum) (Equus caballus, UniProt P81908); construct: Butyrylcholinesterase (from equine serum); purchased Sigma; host or cells: equine serum; assay: biochemical; type: biochemical; details: competitive component; read-out: BChE Ki
Sequence (P81908 whole entry): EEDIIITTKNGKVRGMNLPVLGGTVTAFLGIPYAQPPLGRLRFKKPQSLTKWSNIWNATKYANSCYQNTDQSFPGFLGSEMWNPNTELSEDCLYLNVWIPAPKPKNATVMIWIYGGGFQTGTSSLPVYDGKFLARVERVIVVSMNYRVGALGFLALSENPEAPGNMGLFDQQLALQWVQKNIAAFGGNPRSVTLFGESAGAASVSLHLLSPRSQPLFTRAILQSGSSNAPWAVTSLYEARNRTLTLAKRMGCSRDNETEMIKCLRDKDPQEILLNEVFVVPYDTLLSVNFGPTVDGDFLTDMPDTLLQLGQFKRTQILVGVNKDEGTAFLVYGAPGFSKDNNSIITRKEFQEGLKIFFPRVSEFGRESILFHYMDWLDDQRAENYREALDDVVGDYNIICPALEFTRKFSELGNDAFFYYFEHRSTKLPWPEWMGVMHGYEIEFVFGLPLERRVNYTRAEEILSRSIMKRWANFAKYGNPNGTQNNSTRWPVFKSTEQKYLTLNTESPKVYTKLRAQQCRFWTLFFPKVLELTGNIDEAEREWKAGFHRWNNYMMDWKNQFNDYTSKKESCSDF
pKi: −log10 of the molar value.
Item-by-item account of pKi
MEASURED ENDPOINT: pKi

COMPOUND	TARGET UNDER TEST	RESULT VALUE
CC(=O)OC1C(OCc2ccccc2)C(CNC(=NC(=O)OC(C)(C)C)NC(=O)OC(C)(C)C)OC1n1cnc2c(Cl)ncnc21 (centres unmarked)	Butyrylcholinesterase (from equine serum) (Equus caballus, UniProt P81908)	6.05
CC(=O)OC1C(OCc2ccccc2)C(CNC(=NC(=O)OC(C)(C)C)NC(=O)OC(C)(C)C)OC1n1cnc2ncnc(Cl)c21 (centres unmarked)	Butyrylcholinesterase (from equine serum) (Equus caballus, UniProt P81908)	5.63

###

tested on: FL83B hepatocytes; experiment: Cytotoxicity (in vitro hepatotoxicity) MTT assay, FL83B; format: cell-based; details: Mus musculus, FL83B, 24 h, normal murine hepatocytes
pIC50: −log10 of the molar value.
Item-by-item account of pIC50
MEASURED ENDPOINT: pIC50

COMPOUND	OPERATOR SYMBOL	RESULT VALUE
CC(=O)OC1C(OCc2ccccc2)C(CNC(=NC(=O)OC(C)(C)C)NC(=O)OC(C)(C)C)OC1n1cnc2ncnc(Cl)c21 (centres unmarked)	=	4.62
O=c1[nH]cc(F)c(=O)[nH]1 [5-Fluorouracil, reference compound]	<	4.00
CC(=O)O[C@@H]1[C@@H](OCc2ccccc2)[C@@H](CN=[N+]=[N-])O[C@H]1n1cnc2c(Cl)ncnc21	=	4.64
CC(=O)O[C@@H]1[C@@H](OCc2ccccc2)[C@@H](CNC(=NC(=O)OC(C)(C)C)NC(=O)OC(C)(C)C)O[C@H]1n1ccc(=O)[nH]c1=O	<	4.00
CC(=O)OC1C(OCc2ccccc2)C(CNC(=NC(=O)OC(C)(C)C)NC(=O)OC(C)(C)C)OC1n1cnc2c(Cl)ncnc21 (centres unmarked)	=	4.13
